system: velvetleaf; test: Test C pre-/postemergence herbicide test; format: in vivo, Abutilon theophrasti; conditions: Postemergence, 31 g ai/ha; scale 0 to 100 (0 no effect, 100 complete control)
EXPERIMENTAL_ENDPOINT: Plant response rating, Velvetleaf
Answer using only a numeral; do not append any unit.

[Q] Fill in: Plant response rating, Velvetleaf of O=C1NCC(c2cccc(OC(F)F)c2)C1C(=O)Nc1ccc(F)c(F)c1F (centres unmarked) [Compound 325] is ___
[A] 0

[Q] Follow-up entry: O=C1NCC(c2cccc(OC(F)F)c2)C1C(=O)Nc1cccc(F)c1F (centres unmarked) [Compound 324]
[A] 0

[Q] Follow-up entry: O=C1NCC(c2cccc(C(F)(F)F)c2)C1C(=O)Nc1cccc(Cl)c1F (centres unmarked) [Compound 316]
[A] 0

[Q] Follow-up entry: O=C1NCC(c2cccc(Cl)c2)C1C(=O)Nc1cccc(F)c1F (racemic) [Compound 275]
[A] 5

[Q] Follow-up entry: CN1CC(c2ccc(F)cc2)C(C(=O)Nc2cccc(F)c2F)C1=O (centres unmarked) [Compound 271]
[A] 5

[Q] Follow-up entry: O=C1NCC(c2ccc(F)cc2)C1C(=O)Nc1cccc(F)c1F (racemic) [Compound 119]
[A] 0

[Q] Follow-up entry: Cc1cccc(NC(=O)C2C(=O)NCC2c2cccc(C(F)(F)F)c2)c1 (centres unmarked) [Compound 317]
[A] 0

[Q] Follow-up entry: O=C1NCC(c2ccc(C(F)(F)F)cc2)C1C(=O)Nc1ccc(F)c(F)c1F (centres unmarked) [Compound 232]
[A] 5
